The reported measurements were obtained from patent US20110250165A1.

Quick reference for reactivity (MFI of chimeric receptor/MFI of wild type CXCR4 x 100%) among some binders
- TARGET OR SYSTEM: 2242 CXCR2/CXCR4 chimera
- EXPERIMENT: flow cytometry, scFv-Fc on transfected 293T cells, FITC anti-human IgG
MEASURED PARAMETER: reactivity (MFI of chimeric receptor/MFI of wild type CXCR4 x 100%)

>>> measured_value("20-Fc (Fc fusion, part only; not given: linker and human IgG1 hinge-Fc, not shown: another chain or arm of the molecule; a dimerising Fc or GST; small tags and cut ends) VH: EVQLVQSGGGLVQPGGSLRLSCAASGFTFSSYAMSWVRQAPGKGLEWVANIKQDGSEKYYVDSVKGRFTISRDNAKNSLYLQMNSLRAEDTAVYYCARDQVSGITIFGGKWRSPDVWGQGTTVTVSS VL: SSELTQDPAVSVALGQTVRITCQGDSLRSYYASWYQQKPGQAPVLVIYGKNNRPSGIPDRFSGSKSHNTAYLTITGAQAEDEADYFCNSRSGSQRVFGGGTKLTVL")
11.6
>>> measured_value("6R-Fc (Fc fusion, part only; not given: VH-VL linker, hinge and IgG1 Fc, not shown: another chain or arm of the molecule; a dimerising Fc or GST; small tags and cut ends) VH: QVQLQQSGPGLVKPSQTLSLTCAVSGDSVSSNFVAWNWIRQSPSRGLEWLGRTYYRSRWYNDYAVSVQSRIRVTPDTSKNQFSLHLDSVTPEDTAVYYCARGQHSGFDFWGQGTLVTVSS VL: QSVLTQPPSVSKGLRQTATLTCTGNSNNVGNQGAAWLQQHQGHPPKLLSYRNNNRPSGISERFSASRSGNTASLTITGLQPEDEADYYCSAWDNRLKTYVFGTGGKVTVL")
1
>>> measured_value("33-Fc (Fc fusion, part only; not given: linker and human IgG1 hinge-Fc, not shown: another chain or arm of the molecule; a dimerising Fc or GST; small tags and cut ends) VH: QVTLKESGGGVVQPGRSLRLSCAASGFTFTNYGLHWVRQAPGKGLEWVAVISHDGTKKYYADSVKGRFTISRDSSENTLYLQMNSLRPEDSALYYCARDGGYCSGGRCYSYGMDVWGQGTTVTVSS VL: QSVLTQPPSASGTPGQRVTISCSGSRSNIGSNTVNWYQQLPGTAPKLLIYTNNQRPSGVPDRFSGSKSGTSASLAITGLQAEDEADYYCLSFDSSLTSYVFGTGTKVTVL")
0.3
